These data points were gathered from paper PMC7523345.

Experiment: clinical
Parameters: species or system human
Settings: human, in vivo
EXPERIMENTAL ENDPOINT: half-life

Enquiry: # lookup: half-life of Cc1cccc2c1NC(=O)[C@@H](NC(=O)[C@H](CCC(F)(F)F)[C@H](CCC(F)(F)F)C(N)=O)N=C2c1cccc(F)c1
Return: 1030 to 1680 min
